# Tested on: MW 30 kDa
# ASSAY_NOTES: competitive ABPP of pPAFAH versus proteome hydrolases – biochemical, gel-based, FP-Rh fluorescence, complex proteome, SAR compounds, selectivity assay for pPAFAH inhibitor project, SAR follow-up (AID 588774);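 as to inhibition: 0% = DMSO-only band intensity and 100% = blank gel background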
# MEASUREMENT_PARAMETERS: at 1 µM, stronger effect = higher value
RESULT_TYPE: inhibition (%)
The reply should be a number in %, with the unit left off.

O=C(Oc1noc2cc(Cl)ccc12)N1CCOCC1: 39

Query: # input compound: `Cc1cc(N2CCN(C(=O)n3ncc(-c4ccc(Cl)c(Cl)c4)n3)CC2)c2ccccc2n1` ; wanted: its inhibition
Reply: 36

Query: # input compound: `COc1ccc(-c2cnn(C(=O)N3CCN(c4cc(C)nc5ccccc45)CC3)n2)cc1` ; wanted: its inhibition
Reply: 50

Query: # input compound: `O=C(N1CCOCC1)n1oc2cc(Cl)ccc2c1=O` ; wanted: its inhibition
Reply: 43

Query: # input compound: `Cc1cc(N2CCN(C(=O)n3ncc(-c4ccc(OC(F)(F)F)cc4)n3)CC2)c2ccccc2n1` ; wanted: its inhibition
Reply: 44

Query: # input compound: `O=C(Oc1noc2cc(Cl)ccc12)N1CCCCC1` ; wanted: its inhibition
Reply: 40

Query: # input compound: `Cc1cc(N2CCN(C(=O)n3ncc(-c4ccccc4)n3)CC2)c2ccccc2n1` ; wanted: its inhibition
Reply: 51

Query: # input compound: `Cc1cc(N2CCN(C(=O)n3ncc(-c4ccc([N+](=O)[O-])cc4)n3)CC2)c2ccccc2n1` ; wanted: its inhibition
Reply: 67

----------
# Tested on: pPAFAH
# ASSAY_NOTES: competitive ABPP of pPAFAH versus proteome hydrolases – biochemical, gel-based, FP-Rh fluorescence, complex proteome, SAR compounds, selectivity assay for pPAFAH inhibitor project, SAR follow-up (AID 588774)
# MEASUREMENT_PARAMETERS: anti-targets inhibited, at 10 µM
RESULT_TYPE: anti-target count
Please reply with the value in numeric form only.

Example molecules with recorded anti-target count:
O=C(Oc1noc2cc(Cl)ccc12)N1CCCCC1: 2
O=C(N1CCOCC1)n1oc2cc(Cl)ccc2c1=O: 6
Cc1cc(N2CCN(C(=O)Oc3ccc(C4CCCCC4)cc3)CC2)c2ccccc2n1: 0

Query: # input molecule: `Cc1cc(N2CCN(C(=O)n3ncc(-c4ccc([N+](=O)[O-])cc4)n3)CC2)c2ccccc2n1` ; wanted: its anti-target count
Reply: 9

Query: # input molecule: `Cc1cc(N2CCN(C(=O)Oc3ccc(-c4ccccc4)cc3)CC2)c2ccccc2n1` ; wanted: its anti-target count
Reply: 0

----------
# System: ABHD6
# ASSAY_NOTES: competitive ABPP of pPAFAH versus proteome hydrolases – biochemical, gel-based, FP-Rh fluorescence, complex proteome, SAR compounds, selectivity assay for pPAFAH inhibitor project, SAR follow-up (AID 588774)
# MEASUREMENT_PARAMETERS: at 10 µM
Activity calls are given as the source filed them.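 Rule for the calls: active = target enzyme inhibited at least 50% at a set dose, and selective over every off-target enzyme by a set factor; inactive = weaker inhibition or too little selectivity.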
Mark one answer only. Choices: active, inactive

Example results:
Cc1cc(N2CCN(C(=O)Oc3ccc(C(F)(F)F)cc3)CC2)c2ccccc2n1: inactive
Cc1cc(N2CCN(C(=O)n3oc4cc(Cl)ccc4c3=O)CC2)c2ccccc2n1: inactive
O=C(N1CCOCC1)n1oc2cc(Cl)ccc2c1=O: inactive
Cc1cc(N2CCN(C(=O)Oc3noc4cc(Cl)ccc34)CC2)c2ccccc2n1: active
Cc1cc(N2CCN(C(=O)Oc3ccc([N+](=O)[O-])cc3)CC2)c2ccccc2n1: inactive
Cc1cc(N2CCN(C(=O)Oc3ccc(-c4ccccc4)cc3)CC2)c2ccccc2n1: inactive

Below: the item to evaluate.
Query: Hi, sorry to bother you, what did the test record for `Cc1cc(N2CCN(C(=O)n3ncc(-c4ccc([N+](=O)[O-])cc4)n3)CC2)c2ccccc2n1` ?
Reply: inactive
